- Target System: human TLR9 (Homo sapiens, UniProt Q9NR96)
- Construct: host or cells: HEK-Blue cells
- Sequence (Q9NR96 26-1032): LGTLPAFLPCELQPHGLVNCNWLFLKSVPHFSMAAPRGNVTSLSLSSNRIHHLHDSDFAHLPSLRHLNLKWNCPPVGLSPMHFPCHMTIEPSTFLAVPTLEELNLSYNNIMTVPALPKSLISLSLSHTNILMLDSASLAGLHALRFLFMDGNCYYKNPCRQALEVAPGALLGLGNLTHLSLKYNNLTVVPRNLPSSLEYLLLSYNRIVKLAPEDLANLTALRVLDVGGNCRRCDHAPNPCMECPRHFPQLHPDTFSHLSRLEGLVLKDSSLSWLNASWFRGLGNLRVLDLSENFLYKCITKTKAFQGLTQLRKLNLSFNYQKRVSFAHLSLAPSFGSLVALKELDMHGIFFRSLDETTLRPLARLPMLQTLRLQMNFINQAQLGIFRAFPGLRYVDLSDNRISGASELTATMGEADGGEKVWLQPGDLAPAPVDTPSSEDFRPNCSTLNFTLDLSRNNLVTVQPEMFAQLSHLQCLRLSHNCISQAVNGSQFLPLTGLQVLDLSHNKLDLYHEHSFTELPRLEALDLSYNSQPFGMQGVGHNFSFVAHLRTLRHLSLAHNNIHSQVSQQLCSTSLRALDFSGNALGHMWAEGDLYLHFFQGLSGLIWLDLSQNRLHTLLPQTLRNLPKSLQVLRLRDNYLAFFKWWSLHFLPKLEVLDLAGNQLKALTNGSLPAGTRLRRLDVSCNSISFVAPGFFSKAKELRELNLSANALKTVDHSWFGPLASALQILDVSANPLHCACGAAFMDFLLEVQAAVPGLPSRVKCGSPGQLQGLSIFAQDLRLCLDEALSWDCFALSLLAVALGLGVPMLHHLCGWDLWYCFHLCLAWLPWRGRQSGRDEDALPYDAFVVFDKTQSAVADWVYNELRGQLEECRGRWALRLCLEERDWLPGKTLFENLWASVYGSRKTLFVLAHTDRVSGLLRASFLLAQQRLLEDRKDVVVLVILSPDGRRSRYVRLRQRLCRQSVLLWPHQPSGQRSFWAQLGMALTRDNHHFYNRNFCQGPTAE
- Measurement Notes: TLR9 inhibition reporter assay (HEK-Blue cells, SEAP reporter, ODN2006 stimulation)
- Assay type: cell-based
- Condition Context: HEK-Blue cells overexpressing human TLR9, SEAP reporter, ODN2006 5 nM
- Excerpt: TLR7/8/9 Inhibition Reporter Assays HEK-Blue™-cells (Invivogen) overexpressing human TLR7, TLR8 or TLR9 receptors were used for screening inhibitors of these receptors using an inducible SEAP (secreted embryonic alkaline phosphatase) reporter gene under the control of the IFN-β minimal promoter fused to five NF-κB and AP-1-binding sites. […]
pIC50: −log10 of the molar value.
Tag: yes if measured pIC50 is not below 5, no if it is.

compound="Cc1cc(-c2[nH]c3ccc(C4CCCN(C(=O)CN5CCOCC5)C4)cc3c2C(C)C)cc(C)n1 (centres unmarked) [Example 196]" assigned_category=no

Can CNCC(=O)N1CCOC(c2ccc3[nH]c(-c4cn5ncnc5c(C)c4C)c(C(C)C)c3c2)C1 (centres unmarked) [Example 341] be said to have pIC50 at or above 5?
yes

Given the entry Cc1c(-c2[nH]c3ccc(C4CCC(NCC(=O)N(C)C)CC4)cc3c2C(C)C)cn2cnnc2c1C (centres unmarked) [Example 517] , answer whether its pIC50 meets or surpasses 5.
yes

Quick check, pIC50 >= 5? COc1cc(-c2[nH]c3ccc(C4CNC(C)(C)CO4)cc3c2C(C)C)cn2ncnc12 (centres unmarked) [Example 368]
yes

Determine whether this compound has pIC50 no lower than 5: CCc1c(-c2ccnc(C)c2)[nH]c2ccc(CNC(=O)C3CCNC3)cc12 (centres unmarked)
yes

Hello, I need to know if Cc1c(-c2[nH]c3ccc(C4CC5CN(CC#N)CC5C4)cc3c2C(C)C)cn2ncnc2c1C (centres unmarked) has measured pIC50 not below 5. Thanks!
no

# check: pIC50 of COc1cc(-c2[nH]c3ccc(C4CN(C5COC5)C(C)(C)CO4)cc3c2C(C)C)cn2ncnc12 (centres unmarked) is greater than or equal to 5
no

Hello, I need to know if Cc1cc(-c2[nH]c3ccc(C4CCC(NC5COC5)CC4)cc3c2C(C)C)cn2ncnc12 (centres unmarked) [Example 59] has measured pIC50 not below 5. Thanks!
yes
